Provenance of the data: patent US20030162765A1

Structures can show the parent of a compound that is named as a salt.
metricName: melting point

As a guide, the following entries are already answered.
COc1cc(-c2cccc(N)n2)ccc1OCCN1CCN(CCc2ccccc2)CC1 (as salt: hydrochloride) [Example 9] ... 167 to 182 °C
COc1cc(-c2cccc(N)n2)ccc1OCCN(C)C (as salt: hydrochloride) [Example 6] ... 225 to 228 °C
Cc1cc(-c2cccc(N)n2)c(C)cc1OCCN1CCN(CCc2ccccc2)CC1 (as salt: hydrochloride) [Example 111] ... > 220 °C
CCOc1cc(-c2cccc(N)n2)ccc1OCCN(C)C (as salt: hydrochloride) [Example 12] ... 210 to 216 °C

Now for another entry.
Asked: Could you tell me which melting point is on file for Cc1cc(-c2cccc(N)n2)c(C)cc1OCCN(C)C (as salt: hydrochloride) [Example 110] ?
Given back: 205 to 209 °C
